Give measured IC50 for each item. Keep answers brief.
- System: MDA-MB-231
- experiment summary: Cytotoxicity against human MDA-MB-231 cells assessed as decrease in cell viability treated for 2 hrs measured after 48 hrs by MTT assay
- Format: functional, cell-based
One number for each entry, in µM.

compound | IC50 [µM]
COc1cccc2c1C(=O)c1c(O)c3c(c(O)c1C2=O)C[C@@](O)(C(=O)COC(=O)CCC(=O)NCCCO[C@H]1CC[C@@]2(C)C(=CC[C@H]4[C@@H]5CC[C@H]([C@H](C)CCCC(C)C)[C@@]5(C)CC[C@@H]42)C1)C[C@@H]3O[C@H]1C[C@H](N)[C@H](O)[C@H](C)O1 | 21.6

Provide IC50 values for the following items, in order.
1. COc1cccc2c1C(=O)c1c(O)c3c(c(O)c1C2=O)C[C@@](O)(C(=O)COC(=O)CCC(=O)NCCCNC(=O)O[C@H]1CC[C@@]2(C)C(=CC[C@H]4[C@@H]5CC[C@H]([C@H](C)CCCC(C)C)[C@@]5(C)CC[C@@H]42)C1)C[C@@H]3O[C@H]1C[C@H](N)[C@H](O)[C@H](C)O1
2. COc1cccc2c1C(=O)c1c(O)c3c(c(O)c1C2=O)C[C@@](O)(C(=O)CO)C[C@@H]3O[C@H]1C[C@H](N)[C@H](O)[C@H](C)O1 [DOXORUBICIN]

Output:
1: 16.4; 2: 14.7

###

- Tested on: MCF7
- experiment summary: Cytotoxicity against human MCF7 cells assessed as decrease in cell viability at 5 uM treated for 2 hrs measured after 48 hrs by MTT assay
- Assay type: functional, cell-based
Active and inactive are the calls of the source. The rule behind the calls is not given here.
API: response.call in Y for active, N for inactive

Below, 3 compounds whose answers are already recorded.
record smiles | answer label
COc1cccc2c1C(=O)c1c(O)c3c(c(O)c1C2=O)C[C@@](O)(C(=O)COC(=O)CCC(=O)NCCCO[C@H]1CC[C@@]2(C)C(=CC[C@H]4[C@@H]5CC[C@H]([C@H](C)CCCC(C)C)[C@@]5(C)CC[C@@H]42)C1)C[C@@H]3O[C@H]1C[C@H](N)[C@H](O)[C@H](C)O1 | Y
COc1cccc2c1C(=O)c1c(O)c3c(c(O)c1C2=O)C[C@@](O)(C(=O)CO)C[C@@H]3O[C@H]1C[C@H](NC(=O)CCC(=O)NCCCNC(=O)O[C@H]2CC[C@@]3(C)C(=CC[C@H]4[C@@H]5CC[C@H]([C@H](C)CCCC(C)C)[C@@]5(C)CC[C@@H]43)C2)[C@H](O)[C@H](C)O1 | N
COc1cccc2c1C(=O)c1c(O)c3c(c(O)c1C2=O)C[C@@](O)(C(=O)CO)C[C@@H]3O[C@H]1C[C@H](NC(=O)CCC(=O)NCCCO[C@H]2CC[C@@]3(C)C(=CC[C@H]4[C@@H]5CC[C@H]([C@H](C)CCCC(C)C)[C@@]5(C)CC[C@@H]43)C2)[C@H](O)[C@H](C)O1 | N

Input: Each compound tested received a call. Report the one for COc1cccc2c1C(=O)c1c(O)c3c(c(O)c1C2=O)C[C@@](O)(C(=O)COC(=O)CCC(=O)NCCCNC(=O)O[C@H]1CC[C@@]2(C)C(=CC[C@H]4[C@@H]5CC[C@H]([C@H](C)CCCC(C)C)[C@@]5(C)CC[C@@H]42)C1)C[C@@H]3O[C@H]1C[C@H](N)[C@H](O)[C@H](C)O1 .
Output: Y

###

- Tested on: A549
- experiment summary: Cytotoxicity against human A549 cells assessed as decrease in cell viability at 10 uM treated for 2 hrs measured after 48 hrs by MTT assay
- Format: functional, cell-based
Calls of active or inactive are those of the source. No cut-off for these calls is given here.
API: response.call in active, inactive

record smiles | answer label
COc1cccc2c1C(=O)c1c(O)c3c(c(O)c1C2=O)C[C@@](O)(C(=O)CO)C[C@@H]3O[C@H]1C[C@H](NC(=O)CCC(=O)NCCCO[C@H]2CC[C@@]3(C)C(=CC[C@H]4[C@@H]5CC[C@H]([C@H](C)CCCC(C)C)[C@@]5(C)CC[C@@H]43)C2)[C@H](O)[C@H](C)O1 | inactive

Input: Each molecule tested received a call. Report the one for COc1cccc2c1C(=O)c1c(O)c3c(c(O)c1C2=O)C[C@@](O)(C(=O)COC(=O)CCC(=O)NCCCNC(=O)O[C@H]1CC[C@@]2(C)C(=CC[C@H]4[C@@H]5CC[C@H]([C@H](C)CCCC(C)C)[C@@]5(C)CC[C@@H]42)C1)C[C@@H]3O[C@H]1C[C@H](N)[C@H](O)[C@H](C)O1 .
Output: active

Input: Each molecule tested received a call. Report the one for COc1cccc2c1C(=O)c1c(O)c3c(c(O)c1C2=O)C[C@@](O)(C(=O)CO)C[C@@H]3O[C@H]1C[C@H](NC(=O)CCC(=O)NCCCNC(=O)O[C@H]2CC[C@@]3(C)C(=CC[C@H]4[C@@H]5CC[C@H]([C@H](C)CCCC(C)C)[C@@]5(C)CC[C@@H]43)C2)[C@H](O)[C@H](C)O1 .
Output: inactive

Input: Each molecule tested received a call. Report the one for COc1cccc2c1C(=O)c1c(O)c3c(c(O)c1C2=O)C[C@@](O)(C(=O)COC(=O)CCC(=O)NCCCO[C@H]1CC[C@@]2(C)C(=CC[C@H]4[C@@H]5CC[C@H]([C@H](C)CCCC(C)C)[C@@]5(C)CC[C@@H]42)C1)C[C@@H]3O[C@H]1C[C@H](N)[C@H](O)[C@H](C)O1 .
Output: active

meta.source: ChEMBL document CHEMBL3992542
